Entry source: paper PMC4336329

Provide the recorded hERG current change (%, negative = inhibition) at 10uM for the entries that follow.
Target: human ether-à-go-go-related gene (hERG) potassium channel (human);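 note: peak tail current of the secondary pulse compared with the same well before compound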
Sequence (Q12809 whole entry, looked up): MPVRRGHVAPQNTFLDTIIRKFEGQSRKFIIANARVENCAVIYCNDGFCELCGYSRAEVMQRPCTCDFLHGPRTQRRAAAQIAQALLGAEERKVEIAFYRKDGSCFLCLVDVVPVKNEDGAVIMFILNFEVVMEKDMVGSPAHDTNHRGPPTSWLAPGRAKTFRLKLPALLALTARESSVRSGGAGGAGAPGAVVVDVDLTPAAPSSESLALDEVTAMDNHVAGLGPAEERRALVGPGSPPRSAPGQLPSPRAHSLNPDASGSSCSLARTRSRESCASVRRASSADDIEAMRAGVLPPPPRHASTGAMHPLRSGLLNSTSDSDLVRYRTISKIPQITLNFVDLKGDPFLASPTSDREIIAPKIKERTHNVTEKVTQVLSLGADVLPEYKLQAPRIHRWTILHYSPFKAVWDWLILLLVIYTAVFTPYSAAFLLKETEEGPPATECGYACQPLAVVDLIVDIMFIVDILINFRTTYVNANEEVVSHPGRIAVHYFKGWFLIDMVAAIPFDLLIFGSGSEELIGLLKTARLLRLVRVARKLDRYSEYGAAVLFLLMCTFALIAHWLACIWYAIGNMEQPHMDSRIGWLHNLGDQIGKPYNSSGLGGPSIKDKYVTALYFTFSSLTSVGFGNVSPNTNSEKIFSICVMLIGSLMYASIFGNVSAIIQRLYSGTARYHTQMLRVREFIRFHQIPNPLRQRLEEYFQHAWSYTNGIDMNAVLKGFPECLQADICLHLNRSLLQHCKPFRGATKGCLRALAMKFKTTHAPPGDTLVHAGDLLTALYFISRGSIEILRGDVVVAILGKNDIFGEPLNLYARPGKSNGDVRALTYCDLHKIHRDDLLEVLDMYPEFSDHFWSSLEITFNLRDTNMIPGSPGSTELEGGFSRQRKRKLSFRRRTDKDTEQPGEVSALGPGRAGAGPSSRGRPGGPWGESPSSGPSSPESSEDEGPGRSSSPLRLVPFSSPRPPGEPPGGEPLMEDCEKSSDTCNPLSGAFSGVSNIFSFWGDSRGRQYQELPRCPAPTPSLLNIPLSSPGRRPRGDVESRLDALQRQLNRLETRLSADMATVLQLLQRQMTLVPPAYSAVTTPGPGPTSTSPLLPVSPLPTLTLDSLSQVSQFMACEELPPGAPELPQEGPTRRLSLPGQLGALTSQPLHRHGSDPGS
Experiment: primary screen, population patch clamp on CHO cells stably expressing hERG; higher = less effect of the substance
In all, about 310,000 compounds went through this assay and about 14,000 (4.5%) showed an effect of 50% or more. Effects have a minus sign here. Many of the other results were omitted from the sample, so strong results are more common in it than they were.
Numbers only, in %.

// known answers, use as guide
COc1cc(Br)c(-c2sc(Nc3ccccc3)n[n+]2-c2ccccc2)cc1OC.[Cl-]    -68.7
CCCCOc1ccc(C2=CSC3=NCCN23)cc1[N+](=O)[O-]    -71
COc1ccc(-c2sc(Nc3ccccc3)n[n+]2-c2ccccc2)cc1Br.[Cl-]    -48.7
CCc1ccc(Nc2n[n+](-c3ccccc3)c(-c3ccc(OCc4ccccc4)cc3)s2)cc1.[Cl-]    -45.2
Br.COc1ccc(C2=CSC3=NCCN23)cc1OC    -6.58

Dear colleague, could you send me hERG current change (%, negative = inhibition) at 10uM for each of the items below? Thanks.
1. CCOC(=O)c1sc(=S)n(C)c1C
2. CC1CCCCN1C(=O)c1cccc(NC2=C(Cl)C(=O)N(Cc3ccccc3)C2=O)c1 (stereo not shown)
3. Br.COc1ccc(C2=CSC3=NCCN23)cc1Br

Reply text:
[12, -15.8, -50.7]

Each of the following entries comes with a recorded value; kindly state hERG current change (%, negative = inhibition) at 10uM for each.
1. CCCNc1nc2c(c(=O)[nH]c(=O)n2C)n1CCC(C)C
2. CCCCOc1ccc(-c2csc(N)n2)cc1[N+](=O)[O-]

Reply text:
1. -0.274
2. 11.2
